Target: T1, TipAL (Streptomyces lividans, UniProt P0A4T9 1-253)
T1 sequence: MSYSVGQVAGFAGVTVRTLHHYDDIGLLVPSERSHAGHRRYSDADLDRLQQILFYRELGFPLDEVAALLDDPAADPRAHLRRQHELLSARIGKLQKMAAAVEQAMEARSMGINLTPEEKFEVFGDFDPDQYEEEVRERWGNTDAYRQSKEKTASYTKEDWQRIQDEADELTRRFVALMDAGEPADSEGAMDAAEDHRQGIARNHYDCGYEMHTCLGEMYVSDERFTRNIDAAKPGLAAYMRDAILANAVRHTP
Experiment: fluorescence polarization; thiostrepton 1:1; 20 mM Tris-HCl pH 7.5, 200 mM NaCl, 5% (v/v) glycerol, 298 K; 10 nM labeled DNA
Conditions: protein: recombinant; tags: His6 (pET-28a); chain copies: 2; label: 5'-carboxyfluorescein; blunt
pKd: −log10 of the molar value.

{"columns": ["Binder", "pKd"],
 "data": [
  ["ptipA (dsDNA) DNA 1: TTGCACCTCACGTCACGTGAGGAGGC DNA 2: GCCTCCTCACGTGACGTGAGGTGCAA", 7.52]
]}
